Reference source: the supplement of paper PMC10567573

B1: OAS1 (parent)
chain: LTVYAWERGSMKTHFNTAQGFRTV

- Variants of: B1
- test.method.notes: protein stability index of a GFP-peptide fusion (GPS, HEK-293T) (PSI 1-6); higher = more stable;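 further: lentivirally expressed fusions sorted by FACS into six bins by GFP to DsRed ratio, PSI derived from sequencing read proportions per bin multiplied by bin number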
- test.settings: c terminus: a fixed tail appended
Reported values of protein stability index for individual entries
No unit in the answer, please; the number alone is enough.

# count of solved cases: 2
* W6P | 1.69
* V3D | 2.57

Moving on to the next variant.
Query string: For Q19P , what is its reported protein stability index?
Result string: 3.02
